Would you kindly list Activity for each of these compounds?
# testSystem: HTH-type quorum-sensing regulator RhlR (Pseudomonas aeruginosa (strain ATCC 15692 / PAO1 / 1C / PRS 101 / LMG12228)) (UniProt P54292)
# Sequence (P54292 whole entry): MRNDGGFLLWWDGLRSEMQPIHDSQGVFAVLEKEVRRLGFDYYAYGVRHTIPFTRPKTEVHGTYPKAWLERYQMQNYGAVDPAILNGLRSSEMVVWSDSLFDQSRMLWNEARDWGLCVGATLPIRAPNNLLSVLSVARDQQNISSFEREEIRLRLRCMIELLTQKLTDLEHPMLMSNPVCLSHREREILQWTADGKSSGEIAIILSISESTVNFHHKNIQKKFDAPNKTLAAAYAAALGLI
# testProtocol: Antagonist activity at Pseudomonas aeruginosa RhlR expressed in Escherichia coli DH5alpha assessed as relative protein activity at 100 uM incubated for 1.5 hrs in presence of N-butyryl-L-homoserine lactone by luminescence reporter gene assay relative to control
# Design: scale not given: the % may be the effect or the level left
Numbers only, in %.

Below, each entry is followed by its recorded Activity result.
CCCC(O)CC(=O)/C=C/c1ccc(F)c(F)c1 (stereo not drawn): 20
CCCCC[C@H](O)C#Cc1ccc(F)c(F)c1: 67

Please give Activity, item by item, for the list that follows.
1. CCCC(O)CC(=O)/C=C/c1ccc(C)cc1 (stereo not drawn)
2. CCCCC(O)C#Cc1ccc(F)c(F)c1 (racemic)
3. CCCC(O)CC(=O)/C=C/c1cccc(O)c1 (stereo not drawn)
4. CCCC(O)CC(=O)CCc1ccc(F)cc1 (stereo not drawn)
5. CCCC(O)CC(=O)/C=C/c1ccc(Cl)cc1 (stereo not drawn)
6. CCCC[C@@H](O)C#Cc1ccc(F)c(F)c1

# output
1. 65
2. 71
3. 78
4. 51
5. 64
6. 67

---

# testSystem: HTH-type quorum-sensing regulator RhlR (Pseudomonas aeruginosa (strain ATCC 15692 / PAO1 / 1C / PRS 101 / LMG12228)) (UniProt P54292)
# testProtocol: Agonist activity at Pseudomonas aeruginosa RhlR expressed in Escherichia coli DH5alpha assessed as relative protein activity at 1000 uM incubated for 1.5 hrs by luminescence reporter gene assay relative to control
measuredProperty: Activity (%)
Give bare numbers, in %.

Batch of 2 molecules: report Activity for each.
1. CCC[C@@H](O)C#Cc1ccc(F)c(F)c1
2. CCCCCC(=O)/C=C/c1ccc(F)c(F)c1

# output
[5, 3]

For each of the molecules below, note its Activity.
1. CCCCCC(=O)C#Cc1ccc(F)c(F)c1
2. CCC[C@H](O)C#Cc1ccc(F)c(F)c1

# output
1. 5
2. 5

---

# System: Pseudomonas aeruginosa
# testProtocol: Antibacterial activity against Pseudomonas aeruginosa assessed as bacterial growth at 100 uM incubated for 24 hrs relative to control
# Format: functional
The source made the active and inactive calls. No cut-off for these calls is given here.
measuredProperty: Activity

Here are 5 compounds together with their reported answers.
CCCC(=O)NC1CCCC1: 98%
CCCCCCCCC(O)CC(=O)CCc1ccc(O)c(OC)c1 (stereo unspecified): inactive
CCCCCC(=O)C#Cc1ccc(F)c(F)c1: 88%
CCCC(O)CC(=O)/C=C/c1ccc(O)c(OC)c1 (stereo unspecified): 95%
CCCCCC(O)C#Cc1ccc(O)c(OC)c1 (racemic): inactive

Batch: Activity for all items listed.
1. CCCCCC(=O)C#Cc1ccc(O)c(OC)c1
2. CCCC(O)CC(=O)/C=C/c1ccc(O)c(O)c1 (stereo unspecified)
3. CCCC(O)CC(=O)/C=C/c1ccc(O)cc1 (stereo unspecified)

# output
["inactive", "104%", "inactive"]

Please report Activity for every entry that follows.
1. CCC[C@@H](O)C#Cc1ccc(F)c(F)c1
2. CCCC(O)CC(=O)/C=C/c1cccc(OC)c1 (stereo unspecified)
3. CCCC(O)CC(=O)/C=C/c1ccc(F)c(F)c1 (stereo unspecified)

# output
1. 102%
2. 95%
3. 105%
